The measurements presented in this section are drawn from patent US5300672A.

# Tested on: Puccinia graminis (f. sp. tritici Race 15B-2)
# methodNotes: whole plant or invertebrate
# Assay type: in vivo
# conditionParameters: Puccinia graminis, 336 h, read-out: % Control WSR
Here, each record is paired with measured pest or weed control at 200 ppm data.
Kindly provide the numeric value in % only, without the unit symbol.

structureSmiles	pest or weed control at 200 ppm [%]
CCCCCCCCNC(=O)/C=C\SC(=O)c1ccc2ccccc2c1	75

Ask | Which pest or weed control at 200 ppm reading was recorded for the compound `CCCCCCCCNC(=O)/C=C\SC(=O)/C=C/c1ccccc1` ?
Reply | 75

Ask | I'd like to know its pest or weed control at 200 ppm. The compound in question is `CCCCCCCCNC(=O)/C=C\SC(=O)/C=C/c1ccco1`
Reply | 90

###

Measured pest or weed control at 200 ppm, listed per entry for reference.
# System: Pellicularia filamentosa (f. sp. sasiki)
# methodNotes: whole plant or invertebrate
# Format: in vivo
# conditionParameters: 120 h; read-out: % Control RSB
Kindly answer with a numeric value in %, unit omitted.

structureSmiles	valueType	measurement
CCCCCCCCNC(=O)/C=C\SC(=O)COC	pest or weed control at 200 ppm	0
CCCCCCCCNC(=O)/C=C\SC(=O)/C=C/c1ccc([N+](=O)[O-])cc1	pest or weed control at 200 ppm	50

Consider now this further molecule.
Ask | Given the entry `CCCCCCCCNC(=O)/C=C\SC(=O)CCCC(=O)OC` , report its measured pest or weed control at 200 ppm.
Reply | 0

###

# pest or weed control at 100 ppm values compiled below
# System: Phytophthora infestans
# methodNotes: whole plant or invertebrate
# Assay type: in vivo
# conditionParameters: Phytophthora infestans, in Solanum lycopersicum, 96 h, read-out: % Control TLB
Please give a number only; it is taken to be in %.

molecule	assayedTarget	pest or weed control at 100 ppm [%]
CCCCCCCCNC(=O)/C=C\SC(=O)c1sccc1C	Phytophthora infestans	80
CCCCCCCCNC(=O)/C=C\SC(=O)c1c(Cl)cccc1Cl	Phytophthora infestans	80
CCCCCCCCNC(=O)/C=C\SC(=O)c1ccccc1Br	Phytophthora infestans	90
CCCCCCCCNC(=O)/C=C\SC(=O)Cc1ccccc1	Phytophthora infestans	90
CCCCCCCCNC(=O)/C=C\SC(=O)C1CC1	Phytophthora infestans	80
CCCCCCCCNC(=O)/C=C\SC(=O)c1ccc([N+](=O)[O-])c([N+](=O)[O-])c1	Phytophthora infestans	90

Ask | Would you kindly share the measured pest or weed control at 100 ppm for `CCCCCCCCNC(=O)/C=C\SC(=O)CCC(=O)OC` ?
Reply | 80

Ask | I have this molecule here, `CCCCCCCCNC(=O)/C=C\SC(=O)CCC(=O)OCC` , and I need its recorded pest or weed control at 100 ppm.
Reply | 80

Ask | Recorded pest or weed control at 100 ppm of `CCCCCCCCNC(=O)/C=C\SC(=O)c1cc(Cl)cc(Cl)c1` , please.
Reply | 85

Ask | For CCCCCCCCNC(=O)/C=C\SC(=O)C(CC)CCCC (centres unmarked) , what is its reported pest or weed control at 100 ppm?
Reply | 90

Ask | Looking for the measured pest or weed control at 100 ppm of `CCCCCCCCNC(=O)/C=C\SC(=O)C1=CCCCC1` , can you help?
Reply | 90

Ask | Form field: reported pest or weed control at 100 ppm of `CCCCCCCCNC(=O)/C=C\SC(=O)CCC1CCCC1`
Reply | 90

Ask | Item under review: `CCCCCCCCNC(=O)/C=C\SC(=O)c1cccnc1Cl` . Reported pest or weed control at 100 ppm?
Reply | 90

Ask | Item under review: `CCCCCCCCNC(=O)/C=C\SC(=O)c1cc2ccccc2s1` . Reported pest or weed control at 100 ppm?
Reply | 90
